Test system: ANGPTL3 Protein
Assay: PCH free uptake, inhibition of ANGPTL3, ELISA of supernatant
Assay type: cell-based
Settings: 5nM, primary cynomolgus monkey hepatocytes, 72 hours
metric_name: Average Inhibition in PCH % (%)
Please reply with the bare figure in % and do not write the unit itself.

substance | reported_value
2002-034-002: GalNAc-conjugated modified ANGPTL3 siRNA, sense SEQ ID NO 33, antisense SEQ ID NO 13 (sense CAUAGUGAAGCAAUCUAAU; antisense AUUAGAUUGCUUCACUAUGGA; GalNAc conjugated, chemically modified, pattern not given here) [Duplex 2002-034-002] | 60.18
2008-011-002: GalNAc-conjugated modified ANGPTL3 siRNA, sense SEQ ID NO 35, antisense SEQ ID NO 28 (sense GAGAAGAACUACAUAUAAA; antisense UUUAUAUGUAGUUCUUCUCAG; GalNAc conjugated, chemically modified, pattern not given here) [Duplex 2008-011-002] | 71.25

// next entry
Enquiry: Need Average Inhibition in PCH % of 2002-034-001: GalNAc-conjugated modified ANGPTL3 siRNA, sense SEQ ID NO 38, antisense SEQ ID NO 13 (sense CAUAGUGAAGCAAUCUAAU; antisense AUUAGAUUGCUUCACUAUGGA; GalNAc conjugated, chemically modified, pattern not given here) [Duplex 2002-034-001] , thanks.
Return: 63.43

---

This section presents substances with their documented Average Inhibition in PCH % values.
Test system: ANGPTL3 Protein
Assay: PCH free uptake, inhibition of ANGPTL3, ELISA of supernatant
Assay type: cell-based
Conditions: 5nM, primary cynomolgus monkey hepatocytes, 72 hours
Please reply with the bare figure in % and do not write the unit itself.

substance | Average Inhibition in PCH %, %
2008-019-001: GalNAc-conjugated modified ANGPTL3 siRNA, sense SEQ ID NO 41, antisense SEQ ID NO 28 (sense GAGAAGAACUACAUAUAAA; antisense UUUAUAUGUAGUUCUUCUCAG; GalNAc conjugated, chemically modified, pattern not given here) [Duplex 2008-019-001] | 73.01
2008-018-001: GalNAc-conjugated modified ANGPTL3 siRNA, sense SEQ ID NO 41, antisense SEQ ID NO 27 (sense GAGAAGAACUACAUAUAAA; antisense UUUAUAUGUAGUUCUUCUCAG; GalNAc conjugated, chemically modified, pattern not given here) [Duplex 2008-018-001] | 73.29

Enquiry: Need Average Inhibition in PCH % of 2008-011-001: GalNAc-conjugated modified ANGPTL3 siRNA, sense SEQ ID NO 40, antisense SEQ ID NO 28 (sense GAGAAGAACUACAUAUAAA; antisense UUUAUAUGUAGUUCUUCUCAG; GalNAc conjugated, chemically modified, pattern not given here) [Duplex 2008-011-001] , thanks.
Return: 72.91

---

System: ANGPTL3 Protein
Assay: PCH free uptake, inhibition of ANGPTL3, ELISA of supernatant
Type: cell-based
Settings: 25nM, primary cynomolgus monkey hepatocytes, 72 hours
From the text: PCH cells were resuscitated using 10% FBS InvitroGRO™ HT Medium, and subsequently, the cell density was adjusted to 3×10^5 cells/mL using 10% FBS InvitroGRO™ CP Medium. […] Data Analysis: Four Parameter Logistic method. This method constructs a standard curve by plotting, with the y-axis as the average absorbance of the standards and the x-axis as the concentration, drawing a best-fit curve through the points on the graph. […]
This section presents substances with their documented Average Inhibition in PCH % values.
Please reply with the bare figure in % and do not write the unit itself.

substance | metric_name | reported_value
2008-035-001: GalNAc-conjugated modified ANGPTL3 siRNA, sense SEQ ID NO 42, antisense SEQ ID NO 28 (sense GAGAAGAACUACAUAUAAA; antisense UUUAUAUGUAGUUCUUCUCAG; GalNAc conjugated, chemically modified, pattern not given here) [Duplex 2008-035-001] | Average Inhibition in PCH % | 68.96
2008-011-001: GalNAc-conjugated modified ANGPTL3 siRNA, sense SEQ ID NO 40, antisense SEQ ID NO 28 (sense GAGAAGAACUACAUAUAAA; antisense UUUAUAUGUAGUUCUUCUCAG; GalNAc conjugated, chemically modified, pattern not given here) [Duplex 2008-011-001] | Average Inhibition in PCH % | 77.81

// next entry
Enquiry: Need Average Inhibition in PCH % of 2002-034-001: GalNAc-conjugated modified ANGPTL3 siRNA, sense SEQ ID NO 38, antisense SEQ ID NO 13 (sense CAUAGUGAAGCAAUCUAAU; antisense AUUAGAUUGCUUCACUAUGGA; GalNAc conjugated, chemically modified, pattern not given here) [Duplex 2002-034-001] , thanks.
Return: 66.66

Values from patent EP4722363A1
